Target: Glucocorticoid receptor (Rattus norvegicus, UniProt P06536)
Sequence (P06536 whole entry): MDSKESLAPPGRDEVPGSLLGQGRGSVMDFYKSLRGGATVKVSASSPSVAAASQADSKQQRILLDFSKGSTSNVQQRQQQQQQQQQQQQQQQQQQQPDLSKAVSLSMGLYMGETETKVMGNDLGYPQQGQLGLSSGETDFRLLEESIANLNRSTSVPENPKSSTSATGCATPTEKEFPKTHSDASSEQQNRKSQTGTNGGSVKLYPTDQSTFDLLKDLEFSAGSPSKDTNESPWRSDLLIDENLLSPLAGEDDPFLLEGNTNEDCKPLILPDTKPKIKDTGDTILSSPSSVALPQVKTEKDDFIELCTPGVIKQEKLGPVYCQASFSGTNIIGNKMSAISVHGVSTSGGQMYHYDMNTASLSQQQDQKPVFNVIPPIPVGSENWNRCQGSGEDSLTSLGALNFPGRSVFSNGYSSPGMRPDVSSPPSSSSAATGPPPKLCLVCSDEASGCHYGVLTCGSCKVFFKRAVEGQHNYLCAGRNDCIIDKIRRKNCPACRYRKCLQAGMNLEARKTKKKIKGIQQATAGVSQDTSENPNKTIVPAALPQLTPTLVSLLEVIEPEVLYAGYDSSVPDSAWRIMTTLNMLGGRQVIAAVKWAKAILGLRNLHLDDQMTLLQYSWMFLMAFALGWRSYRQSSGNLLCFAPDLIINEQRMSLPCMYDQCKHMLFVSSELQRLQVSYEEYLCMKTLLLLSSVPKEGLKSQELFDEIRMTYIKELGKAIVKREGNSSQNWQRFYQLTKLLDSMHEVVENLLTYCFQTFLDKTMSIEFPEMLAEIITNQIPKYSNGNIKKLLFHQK
Assay: Repression of NF-kappaB-luciferase reporter activity in TPA stimulated U2OS cells expressing rat glucocorticoid receptor
Type: functional, cell-based
So basically: is EC50 under 3 nM? Then 1. Not under? Then -1.

{"molecule": "C[C@]12Cc3cnn(-c4ccc(F)cc4)c3C=C1CCC[C@@H]2C(O)c1csc2ccccc12 (some centres not stated)", "labelClass": -1}
{"molecule": "CCCCCCCCC(O)[C@H]1CCCC2=Cc3c(cnn3-c3ccc(F)cc3)C[C@@]21C (some centres not stated)", "labelClass": -1}
{"molecule": "C[C@]12Cc3cnn(-c4ccc(F)cc4)c3C=C1CCC[C@@H]2C(O)c1ccccc1 (some centres not stated)", "labelClass": -1}
{"molecule": "C[C@@H]1C[C@H]2C3CCC4=CC(=O)C=C[C@]4(C)[C@@]3(F)[C@@H](O)C[C@]2(C)[C@@]1(O)C(=O)O (some centres not stated)", "labelClass": 1}
{"molecule": "C[C@]12Cc3cnn(-c4ccc(F)cc4)c3C=C1CCC[C@@H]2C(O)Cc1ccccc1 (some centres not stated)", "labelClass": -1}

---

Biological target: Glucocorticoid receptor (Rattus norvegicus, UniProt P06536)
Assay: Effective concentration against MMTV in transactivation assay in U2OS cells expressing rat GR
Assay type: functional, cell-based
pEC50: −log10 of the molar value.

{"compound": "C[C@@H]1C[C@H]2C3CCC4=CC(=O)C=C[C@]4(C)[C@@]3(F)[C@@H](O)C[C@]2(C)[C@@]1(O)C(=O)O (stereo partly drawn)", "pEC50": 9.70}
{"compound": "C[C@]12Cc3cnn(-c4ccc(F)cc4)c3C=C1CCC[C@@H]2C(O)c1ccccc1 (stereo partly drawn)", "pEC50": 8.52}
{"compound": "CCCCCCCCC(O)[C@H]1CCCC2=Cc3c(cnn3-c3ccc(F)cc3)C[C@@]21C (stereo partly drawn)", "pEC50": 8.40}
